B1: NP_006221.1 (parent)
chain: CQPISFSGFGAEDDDLGGLGLGP

- Variants of: B1
- experiment-notes: protein stability index of a GFP-peptide fusion (GPS, HEK-293T) (PSI 1-6); higher = more stable;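 further: lentivirally expressed fusion library, cells FACS-sorted into six equal-sized GFP/DsRed ratio bins, PSI computed from sequencing read fractions per bin weighted by bin number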
- condition: c terminus: native
# binarize protein stability index: threshold 3 inclusive, high side Fulfilled, low side Not fulfilled

D15S; Not fulfilled
F9Q; Not fulfilled
G10Q; Not fulfilled
F9V; Not fulfilled
L16Y; Not fulfilled

## Input State whether the measured protein stability index reaches 3, counting equality as reaching it, for P23G
## Output Not fulfilled

## Input State whether the measured protein stability index reaches 3, counting equality as reaching it, for L21Y
## Output Fulfilled

## Input State whether the measured protein stability index reaches 3, counting equality as reaching it, for G20R
## Output Fulfilled

## Input State whether the measured protein stability index reaches 3, counting equality as reaching it, for G18I
## Output Not fulfilled

## Input State whether the measured protein stability index reaches 3, counting equality as reaching it, for P23W
## Output Not fulfilled

## Input State whether the measured protein stability index reaches 3, counting equality as reaching it, for L16R
## Output Not fulfilled

## Input State whether the measured protein stability index reaches 3, counting equality as reaching it, for S5T
## Output Not fulfilled

## Input State whether the measured protein stability index reaches 3, counting equality as reaching it, for L19D
## Output Not fulfilled

## Input State whether the measured protein stability index reaches 3, counting equality as reaching it, for I4R
## Output Not fulfilled
